Here, each record is paired with measured ΔH data.
Biological target: BJ6PAD-N (Bacillus subtilis)
Assay: Isothermal titration calorimetry of enzyme-substrate interaction, BJ6PAD-N
Type: binding, Bacillus subtilis J6
Conditions: ITC, 37 °C
result-type: ΔH (kcal/mol)

[
  {
    "compound": "COc1cc(/C=C/C(=O)O)cc(OC)c1O [sinapic acid]",
    "subject-of-test": "BJ6PAD-N (Bacillus subtilis)",
    "result-type": "ΔH",
    "recorded-number": -0.098
  },
  {
    "compound": "O=C(O)/C=C/c1ccc(O)cc1 [p-coumaric acid]",
    "subject-of-test": "BJ6PAD-N (Bacillus subtilis)",
    "result-type": "ΔH",
    "recorded-number": -1.45
  },
  {
    "compound": "COc1cc(/C=C/C(=O)O)ccc1O [ferulic acid]",
    "subject-of-test": "BJ6PAD-N (Bacillus subtilis)",
    "result-type": "ΔH",
    "recorded-number": -0.629
  },
  {
    "compound": "O=C(O)/C=C/c1ccc(O)c(O)c1 [caffeic acid]",
    "subject-of-test": "BJ6PAD-N (Bacillus subtilis)",
    "result-type": "ΔH",
    "recorded-number": -14.9
  }
]

---

Target: BJ6PAD-N (Bacillus subtilis, UniProt O07006)
Sequence (O07006 with tags, fused parts or gaps A39G/H105Y/L108V/E129D/F132Y/K134N/E136A/V138I/D139N/E142T/V143L/K146E): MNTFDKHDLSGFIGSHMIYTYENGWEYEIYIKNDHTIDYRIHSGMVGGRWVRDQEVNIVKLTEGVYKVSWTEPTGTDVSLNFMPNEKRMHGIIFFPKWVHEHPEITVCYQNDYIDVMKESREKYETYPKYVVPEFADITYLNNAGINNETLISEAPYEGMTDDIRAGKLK
Assay: Specific enzyme activity towards phenolic acid substrates, BJ6PAD-N
Assay type: biochemical, Bacillus subtilis J6
Conditions: 37 ℃, pH 6.0; pCA, FA, CafA 10 mmol/L, SA 6 mmol/L
Marks after values point to notes of the source that are not given here.
Here, each record is paired with measured Specific enzyme activity data.
result-type: Specific enzyme activity

[
  {
    "compound": "O=C(O)/C=C/c1ccc(O)cc1 [p-coumaric acid]",
    "subject-of-test": "BJ6PAD-N (Bacillus subtilis, UniProt O07006)",
    "result-type": "Specific enzyme activity",
    "result": "248.96 ± 1.59^a IU/mg"
  },
  {
    "compound": "O=C(O)/C=C/c1ccc(O)c(O)c1 [caffeic acid]",
    "subject-of-test": "BJ6PAD-N (Bacillus subtilis, UniProt O07006)",
    "result-type": "Specific enzyme activity",
    "result": "100.88 ± 3.71^a IU/mg"
  },
  {
    "compound": "COc1cc(/C=C/C(=O)O)ccc1O [ferulic acid]",
    "subject-of-test": "BJ6PAD-N (Bacillus subtilis, UniProt O07006)",
    "result-type": "Specific enzyme activity",
    "result": "178.56 ± 1.58^a IU/mg"
  },
  {
    "compound": "COc1cc(/C=C/C(=O)O)cc(OC)c1O [sinapic acid]",
    "subject-of-test": "BJ6PAD-N (Bacillus subtilis, UniProt O07006)",
    "result-type": "Specific enzyme activity",
    "result": "23.42 ± 0.02^a IU/mg"
  }
]
